# Test system: Mus musculus
# experiment.description: Toxicity in ICR mouse assessed as CB1-mediated moving sluggishly at 0.1 to 1 mg/kg, iv after 15 mins
# Assay type: organism-based
# Design: dose 0.1-1 mg/kg, route intravenous
# run.parameters: in vivo, 0.25 h
readout.kind: Activity

1. CC(=O)NCCNC(=O)C(C)(C)NC(=O)c1cc2c(n(CC3CCCCC3)c1=O)CCCCCC2 :: Toxic
2. COC(=O)C(C)(C)NC(=O)c1cc2c(n(CC3CCCCC3)c1=O)CCCCCC2 :: Toxic
3. CC(C)(NC(=O)c1cc2c(n(CC3CCCCC3)c1=O)CCCCCC2)C(=O)NCCCCCO :: Toxic

###

# System: Mus musculus
# experiment.description: Toxicity in ICR mouse assessed as CB1-induced catalepsy at 0.1 to 1 mg/kg, iv after 15 mins
# Format: organism-based
# Parameters: dose 0.1-1 mg/kg, route intravenous
# run.parameters: in vivo, 0.25 h
readout.kind: Activity

1) CC(C)(NC(=O)c1cc2c(n(CC3CCCCC3)c1=O)CCCCCC2)C(=O)N1CCC(O)CC1 :: Toxic
2) CC(C)(NC(=O)c1cc2c(n(CC3CCCCC3)c1=O)CCCCCC2)C(=O)NCCCO :: Toxic
3) COC(=O)C(C)(C)NC(=O)c1cc2c(n(CC3CCCCC3)c1=O)CCCCCC2 :: Toxic

###

# Test system: Mus musculus
# experiment.description: Toxicity in ICR mouse assessed as CB1-mediated stretching the without moving at 0.1 to 1 mg/kg, iv after 15 mins
# Assay type: organism-based
# Parameters: dose 0.1-1 mg/kg, route intravenous
# run.parameters: in vivo, 0.25 h
readout.kind: Activity

1) CC(C)(NC(=O)c1cc2c(n(CC3CCCCC3)c1=O)CCCCCC2)C(=O)N1CCC(O)CC1 :: Toxic
2) CN(CCO)C(=O)C(C)(C)NC(=O)c1cc2c(n(CC3CCCCC3)c1=O)CCCCCC2 :: Toxic
3) CC(=O)NCCNC(=O)C(C)(C)NC(=O)c1cc2c(n(CC3CCCCC3)c1=O)CCCCCC2 :: Toxic

###

# System: Mus musculus
# experiment.description: Toxicity in ICR mouse assessed as CB1-mediated stretching the without moving at 0.1 to 1 mg/kg, iv after 15 mins
# Assay type: organism-based
# Set-up: dose 0.1-1 mg/kg, route intravenous
# run.parameters: in vivo, 0.25 h
readout.kind: Activity

1. CC(C)(NC(=O)c1cc2c(n(CC3CCCCC3)c1=O)CCCCCC2)C(=O)N1CCC(NS(C)(=O)=O)CC1 :: Non-toxic
2. COC(=O)C(C)(C)NC(=O)c1cc2c(n(CC3CCCCC3)c1=O)CCCCCC2 :: Toxic
3. CC(C)(NC(=O)c1cc2c(n(CC3CCCCC3)c1=O)CCCCCC2)C(=O)N1CCC(C(N)=O)CC1 :: Toxic
4. CC(C)(NC(=O)c1cc2c(n(CC3CCCCC3)c1=O)CCCCCC2)C(=O)NCC(N)=O :: Toxic
5. CC(C)(NC(=O)c1cc2c(n(CC3CCCCC3)c1=O)CCCCCC2)C(=O)NCCCO :: Toxic
6. CC(C)(NC(=O)c1cc2c(n(CC3CCCCC3)c1=O)CCCCCC2)C(=O)NCCCCCO :: Toxic
7. CC(C)(NC(=O)c1cc2c(n(CC3CCCCC3)c1=O)CCCCCC2)C(=O)NNS(C)(=O)=O :: Non-toxic
8. CC(C)(NC(=O)c1cc2c(n(CC3CCCCC3)c1=O)CCCCCC2)C(=O)NN :: Toxic
9. CC(C)(NC(=O)c1cc2c(n(CC3CCCCC3)c1=O)CCCCCC2)C(=O)NCCOCCO :: Toxic

###

# measured.target: Cannabinoid receptor 1 (Homo sapiens, UniProt P21554)
# Sequence (P21554 whole entry): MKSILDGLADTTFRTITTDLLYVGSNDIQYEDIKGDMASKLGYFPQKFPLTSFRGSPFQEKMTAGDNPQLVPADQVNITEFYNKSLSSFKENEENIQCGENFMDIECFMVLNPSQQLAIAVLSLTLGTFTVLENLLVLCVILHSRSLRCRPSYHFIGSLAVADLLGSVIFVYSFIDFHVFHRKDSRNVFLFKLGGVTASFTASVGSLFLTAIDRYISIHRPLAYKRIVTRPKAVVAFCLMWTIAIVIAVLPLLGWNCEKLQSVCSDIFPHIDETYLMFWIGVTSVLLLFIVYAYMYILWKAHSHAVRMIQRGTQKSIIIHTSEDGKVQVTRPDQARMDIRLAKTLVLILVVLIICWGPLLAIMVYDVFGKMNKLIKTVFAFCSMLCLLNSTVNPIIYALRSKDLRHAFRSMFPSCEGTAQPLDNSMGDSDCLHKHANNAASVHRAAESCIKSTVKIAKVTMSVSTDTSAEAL
# experiment.description: Displacement of [3H]-CP55940 from recombinant human CB1 receptor by scatchard plot analysis
pKi: −log10 of the molar value.
readout.kind: pKi

1) CC(C)(NC(=O)c1cc2c(n(CC3CCCCC3)c1=O)CCCCCC2)C(=O)N1CCC(C(N)=O)CC1 :: 8.31
2) CC(C)(NC(=O)c1cc2c(n(CC3CCCCC3)c1=O)CCCCCC2)C(=O)NCCOCCO :: 8.47
3) CC(C)(NC(=O)c1cc2c(n(CC3CCCCC3)c1=O)CCCCCC2)C(=O)N1CCC(O)CC1 :: 8.10
4) CC(C)(NC(=O)c1cc2c(n(CC3CCCCC3)c1=O)CCCCCC2)C(=O)NNS(C)(=O)=O :: 7.49
5) CC(C)(NC(=O)c1cc2c(n(CC3CCCCC3)c1=O)CCCCCC2)C(=O)NCCCCCO :: 8.24
6) COC(=O)C(C)(C)NC(=O)c1cc2c(n(CC3CCCCC3)c1=O)CCCCCC2 :: 8.77
7) CC(C)(NC(=O)c1cc2c(n(CC3CCCCC3)c1=O)CCCCCC2)C(=O)N1CCC(C(=O)O)CC1 :: 5.53
8) CC(C)(NC(=O)c1cc2c(n(CC3CCCCC3)c1=O)CCCCCC2)C(=O)NN :: 7.52
9) CC(=O)NCCNC(=O)C(C)(C)NC(=O)c1cc2c(n(CC3CCCCC3)c1=O)CCCCCC2 :: 8.33
10) CC(C)(NC(=O)c1cc2c(n(CC3CCCCC3)c1=O)CCCCCC2)C(=O)N1CCC(C(=O)NS(C)(=O)=O)CC1 :: 6.66
11) CN(C)CCNC(=O)C(C)(C)NC(=O)c1cc2c(n(CC3CCCCC3)c1=O)CCCCCC2 :: 6.62
12) CC(C)(NC(=O)c1cc2c(n(CC3CCCCC3)c1=O)CCCCCC2)C(=O)NCCCO :: 8.20

###

# Tested on: Mus musculus
# experiment.description: Toxicity in ICR mouse assessed as CB1-mediated spasm, rigor at 0.1 to 1 mg/kg, iv after 15 mins
# Format: organism-based
# Set-up: dose 0.1-1 mg/kg, route intravenous
# run.parameters: in vivo, 0.25 h
readout.kind: Activity

1. CC(C)(NC(=O)c1cc2c(n(CC3CCCCC3)c1=O)CCCCCC2)C(=O)NNS(C)(=O)=O :: Non-toxic
2. CC(=O)NCCNC(=O)C(C)(C)NC(=O)c1cc2c(n(CC3CCCCC3)c1=O)CCCCCC2 :: Toxic
3. CC(C)(NC(=O)c1cc2c(n(CC3CCCCC3)c1=O)CCCCCC2)C(=O)N1CCC(NS(C)(=O)=O)CC1 :: Non-toxic
4. CN(CCO)C(=O)C(C)(C)NC(=O)c1cc2c(n(CC3CCCCC3)c1=O)CCCCCC2 :: Toxic
5. CC(C)(NC(=O)c1cc2c(n(CC3CCCCC3)c1=O)CCCCCC2)C(=O)NCCOCCO :: Toxic

###

Listed here: items and their measured Kp.
# experiment.description: Ratio of drug level in brain to plasma in rat
# Format: ADME
# run.parameters: read-out: BPR
readout.kind: Kp

1. CN(CCO)C(=O)C(C)(C)NC(=O)c1cc2c(n(CC3CCCCC3)c1=O)CCCCCC2 :: 0.28
2. COC(=O)C(C)(C)NC(=O)c1cc2c(n(CC3CCCCC3)c1=O)CCCCCC2 :: 3.35
3. CC(C)(NC(=O)c1cc2c(n(CC3CCCCC3)c1=O)CCCCCC2)C(=O)NNS(C)(=O)=O :: 0.02
